All values here come from patent US9315494B2.

System: IFNα-stimulated STAT-dependent luciferase reporter in Kit225 T cells
Assay Method Text: Kit225 T cell assay, IFNα stimulated STAT-dependent luciferase reporter
Format: cell-based, human
Run Conditions: Kit225 T cells, 200 U/mL human recombinant IFNα, 5-6 hours, luciferase; read-out: IFNα (Kit225 T Cell Inhibition Data)
Property Measured: IC50 (nM)

- Smiles Representation: "CCN(CC)CCCNc1cc(Nc2cc(Nc3ccccc3S(C)(=O)=O)c(C(=O)NC)cn2)nc(C)n1"
  Numeric Value: 370
- Smiles Representation: "CNC(=O)c1cnc(Nc2cccc(-c3ccccc3)n2)cc1Nc1ccccc1C(N)=O"
  Numeric Value: 350
- Smiles Representation: "CNC(=O)c1cnc(Nc2cc(C)c(F)cn2)cc1Nc1cccc(-c2nnn[nH]2)c1OC"
  Numeric Value: 330
- Smiles Representation: "CNC(=O)c1cnc(Nc2cc(C#N)ccn2)cc1Nc1cccc(F)c1OC"
  Numeric Value: 50

###

Test system: IFNα-stimulated STAT-dependent luciferase reporter in Kit225 T cells
Assay Method Text: Kit225 T cell assay, IFNα stimulated STAT-dependent luciferase reporter
Format: cell-based, human
Run Conditions: Kit225 T cells, 200 U/mL human recombinant IFNα, 5-6 hours, luciferase; read-out: IFNα (Kit225 T Cell Inhibition Data)
Kindly apply the following: yes (1) if IC50 is less than 200 nM, no (0) in every other case.

- Compound: "CNC(=O)c1cnc(Nc2cc(OC(C)C)ncn2)cc1Nc1ccccc1S(C)(=O)=O"
  Target Of Assay: "IFNα-stimulated STAT-dependent luciferase reporter in Kit225 T cells"
  Category Label: "yes (1)"
- Compound: "CNC(=O)c1cnc(Nc2cc(Cl)ccn2)cc1Nc1ccc(F)cc1OC"
  Target Of Assay: "IFNα-stimulated STAT-dependent luciferase reporter in Kit225 T cells"
  Category Label: "no (0)"
- Compound: "CNC(=O)c1cnc(Nc2cc(C)nc(C)n2)cc1Nc1cccc(-c2nnc(C)[nH]2)c1OC"
  Target Of Assay: "IFNα-stimulated STAT-dependent luciferase reporter in Kit225 T cells"
  Category Label: "yes (1)"
- Compound: "CNC(=O)c1cnc(Nc2ccc(F)cn2)cc1Nc1ccc(C(=O)N2CCCC2)cc1"
  Target Of Assay: "IFNα-stimulated STAT-dependent luciferase reporter in Kit225 T cells"
  Category Label: "no (0)"
- Compound: "CNC(=O)c1cnc(Nc2cc(C(C)(C)C)ccn2)cc1Nc1ccccc1S(C)(=O)=O"
  Target Of Assay: "IFNα-stimulated STAT-dependent luciferase reporter in Kit225 T cells"
  Category Label: "no (0)"
- Compound: "CNC(=O)c1cnc(Nc2cc(COC)nc(C)n2)cc1Nc1ccccc1S(C)(=O)=O"
  Target Of Assay: "IFNα-stimulated STAT-dependent luciferase reporter in Kit225 T cells"
  Category Label: "no (0)"
- Compound: "CNC(=O)c1cnc(Nc2cc(C)c(F)cn2)cc1Nc1cccc(C(=O)NCc2ccccn2)c1OC"
  Target Of Assay: "IFNα-stimulated STAT-dependent luciferase reporter in Kit225 T cells"
  Category Label: "yes (1)"
- Compound: "CNC(=O)c1cnc(Nc2cc(C#N)ccn2)cc1Nc1cc(F)ccc1S(C)(=O)=O"
  Target Of Assay: "IFNα-stimulated STAT-dependent luciferase reporter in Kit225 T cells"
  Category Label: "yes (1)"
- Compound: "CNC(=O)c1cnc(Nc2ccc(F)cn2)cc1Nc1cccc(F)c1OC"
  Target Of Assay: "IFNα-stimulated STAT-dependent luciferase reporter in Kit225 T cells"
  Category Label: "yes (1)"
- Compound: "CNC(=O)c1cnc(Nc2cc(C(=O)N(C)C)ccn2)cc1Nc1cc(F)cc(F)c1OC"
  Target Of Assay: "IFNα-stimulated STAT-dependent luciferase reporter in Kit225 T cells"
  Category Label: "yes (1)"
- Compound: "CNC(=O)c1cnc(Nc2cc(C)c(F)cn2)cc1Nc1cccc(C(=O)NCC(C)(C)C)c1OC"
  Target Of Assay: "IFNα-stimulated STAT-dependent luciferase reporter in Kit225 T cells"
  Category Label: "yes (1)"
- Compound: "CNC(=O)c1cnc(Nc2ccccn2)cc1Nc1ccccc1S(C)(=O)=O"
  Target Of Assay: "IFNα-stimulated STAT-dependent luciferase reporter in Kit225 T cells"
  Category Label: "yes (1)"
- Compound: "CNC(=O)c1cnc(Nc2cccc(OC)n2)cc1Nc1ccccc1S(C)(=O)=O"
  Target Of Assay: "IFNα-stimulated STAT-dependent luciferase reporter in Kit225 T cells"
  Category Label: "yes (1)"
- Compound: "[2H]C([2H])([2H])NC(=O)c1cnc(Nc2cc(C(C)(C)O)ccn2)cc1Nc1cccc(-c2ncc(F)cn2)c1OC"
  Target Of Assay: "IFNα-stimulated STAT-dependent luciferase reporter in Kit225 T cells"
  Category Label: "yes (1)"
- Compound: "CNC(=O)c1cnc(Nc2ccc(F)cn2)cc1Nc1ccccc1[S+](C)[O-] (centres unmarked)"
  Target Of Assay: "IFNα-stimulated STAT-dependent luciferase reporter in Kit225 T cells"
  Category Label: "no (0)"
- Compound: "CNC(=O)c1cnc(Nc2ccc(F)cn2)cc1Nc1ccccc1C(N)=O"
  Target Of Assay: "IFNα-stimulated STAT-dependent luciferase reporter in Kit225 T cells"
  Category Label: "no (0)"
- Compound: "CNC(=O)c1cnc(Nc2cc(C)c(C)nn2)cc1Nc1ccccc1S(C)(=O)=O"
  Target Of Assay: "IFNα-stimulated STAT-dependent luciferase reporter in Kit225 T cells"
  Category Label: "no (0)"
